These data points were gathered from patent EP0326331B1.

# System: Puccinia recondita tritici (leaf rust)
# Protocol: Test 1 greenhouse foliar spray screen, leaf rust on wheat
# Assay type: in vivo
# Conditions: Puccinia recondita, foliar, Test 1, foliar spray on wheat; disease control rating at 400 ppm / 100 ppm
Kindly supply the reported pest or weed control at 400 ppm values for the records listed here.

// query For "Fc1ccc(CCOc2ccnc3cc(Cl)ccc23)c(F)c1" , what is its reported pest or weed control at 400 ppm?
// result 20 to 89%

// query Endpoint output: pest or weed control at 400 ppm of "COc1ccc(CCOc2ccnc3c(F)cccc23)cc1OC" . Value?
// result 90 to 100%

// query What value of pest or weed control at 400 ppm has been reported for the following compound? Fc1cccc2c(OC3CCCCC3c3ccccc3)ccnc12 (centres unmarked)
// result 20 to 89%

// query Entry under review: Fc1cccc2c(OCCCC(Br)CBr)ccnc12 (centres unmarked) . Reported pest or weed control at 400 ppm?
// result 90 to 100%

// query Fill in: pest or weed control at 400 ppm of "Fc1cccc2c(NCCc3ccc(Cl)cc3)cc(NCCc3ccc(Cl)cc3)nc12" is ___
// result 20 to 89%

// query // returns reported pest or weed control at 400 ppm for input "COc1ccc2nc(C)cc(NCCc3cccc(Oc4ccccc4)c3)c2c1"
// result 20 to 89%

// query Name the recorded pest or weed control at 400 ppm for COC(C)CCOc1ccnc2c(F)cccc12 (centres unmarked) [Example 266, 8-fluoro-4-[3-methoxybutoxy]quinoline] .
// result 0 to 19%

// query # pest or weed control at 400 ppm lookup, item "Oc1ccc(CCNc2ccnc3c(F)cccc23)cc1"
// result 90 to 100%

// query Return reported pest or weed control at 400 ppm; argument: "Fc1cccc2c(CCCc3ccccc3)ccnc12"
// result 90 to 100%

// query # input compound: "CC(=O)N(CCc1ccc(Cl)cc1)c1ccc2c(N(CCc3ccc(Cl)cc3)C(C)=O)ccnc2c1" ; wanted: its pest or weed control at 400 ppm
// result 90 to 100%

// query # pest or weed control at 400 ppm lookup, item "FC(F)(F)c1ccc2c(OCCc3ccccc3)ccnc2c1"
// result 90 to 100%

// query Record request: pest or weed control at 400 ppm value, item "Fc1cccc2c(OCCCCCCCCOc3ccccc3)ccnc12"
// result 0 to 19%

// query # query: pest or weed control at 400 ppm of entry "Cc1ccc(CCOc2ccnc3c(F)cccc23)cc1"
// result 90 to 100%

// query Looking for the measured pest or weed control at 400 ppm of "CCCCOc1ccc(CCOc2ccnc3c(F)cccc23)cc1" , can you help?
// result 90 to 100%

// query Any idea what pest or weed control at 400 ppm was measured for "COc1ccccc1CCOc1ccnc2c(F)cccc12" ?
// result 90 to 100%

// query Would you mind telling me what pest or weed control at 400 ppm value was observed for "Cc1ccc(CCCc2ccnc3c(F)cccc23)cc1" ?
// result 90 to 100%

// query // lookup pest or weed control at 400 ppm for "Fc1cccc2c(OCCc3cccc(Sc4ccccc4)c3)ccnc12"
// result 90 to 100%

// query Bench note: what pest or weed control at 400 ppm did "Clc1ccc(CCOc2ccnc3cc(Cl)ccc23)cc1" show?
// result 20 to 89%

// query // pest or weed control at 400 ppm lookup, key: "Fc1ccc2c(OCCOc3ccc(Br)cc3)ccnc2c1"
// result 0 to 19%

// query Look up pest or weed control at 400 ppm for this compound: [O-][S+](CCc1ccccc1)c1ccnc2c(F)cccc12 (centres unmarked)
// result 20 to 89%
